Provenance of the data: PubChem BioAssay AID1159580

Experiment: chemical genetic growth profiling, strain panel (AID 1159580);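 also: tested at 20 µM; growth read once vehicle control cultures reached saturation at 30 °C; 1 = growth at the plate median or of vehicle wells; lower values mean less growth of the strain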
Details: S. cerevisiae deletion strains, growth OD, locus YDL214C, strain PRR2, stronger effect = lower value
Among all 5,500 compounds or so, about 2,000 (36%) were called active. About 18% were inconclusive and are not listed. This is one part of the list.
Each record is given Yes if its reported normalized growth is strictly below 0.9. Records at or above 0.9 are given No.

Sample answers from the record:
COc1ccccc1N1CCN(C(=O)C(C)c2ccc(CC(C)C)cc2)CC1 (stereo unspecified): No
N#Cc1nccnc1N1CCN(C(=O)Nc2cc(Cl)cc(Cl)c2)CC1: No
CN1/C(=C/C=C/c2ccc3ccccc3[n+]2C)C=Cc2ccccc21: Yes
O=c1cc(CSc2ccc(Cl)cc2)c2ccc(O)cc2o1: Yes

Below 0.9 on normalized growth? Entry FC(F)(F)Oc1ccc(OCc2n[nH]c(=S)n2-c2ccc(Cl)cc2)cc1
No

* * *

Test: chemical genetic growth profiling, strain panel (AID 1159580);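 also: tested at 20 µM; growth read once vehicle control cultures reached saturation at 30 °C; 1 = growth at the plate median or of vehicle wells; lower values mean less growth of the strain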
Settings: S. cerevisiae deletion strains, growth OD, locus YNL248C, strain rpa49, stronger effect = lower value
Hit rate of the full screen: of about 5,500 compounds, about 2,000 (36%) were called active. Not shown: some 18% with an inconclusive outcome. This is one part of the list.
Items are presented alongside their recorded normalized growth.
Reply with the value as a number alone.

Examples with answers:
CC(=O)OCC(=O)[C@@]1(O)CCC2C3C[C@H](C)C4=CC(=O)C=CC4(C)C3[C@@H](O)CC21C (some centres not stated): 1.02
COc1cc(C(=O)N2CCOCC2)cc(OC)c1OC: 0.991
CCC(=O)OCC(=O)C1(OC(=O)CC)C(C)CC2C3CCC4=CC(=O)C=CC4(C)C3(Cl)C(O)CC21C (configuration not stated): 0.973
CSc1nc(NC(C)C)nc(NC(C)C)n1: 0.979
CO[C@H]1[C@@H](O)[C@@H](C)O[C@H](O[C@H]2CCC3(C)C4CCC5(C)[C@@H](C6=CC(=O)OC6)CC[C@]5(O)[C@@H]4CC[C@]3(O)C2)[C@@H]1O (some centres not stated): 1.03
CN(C)CC[C@H](c1ccc(Cl)cc1)c1ccccn1: 0.945
C[N+]1(C)C[C@H](O)[C@H](C(=O)[O-])C1: 0.98
CCC(=O)OCC(=O)[C@@]1(OC(=O)CC)[C@@H](C)CC2C3CCC4=CC(=O)C=C[C@]4(C)C3(F)[C@@H](O)C[C@@]21C (some centres not stated): 0.994

Suppose we examine the compound COc1c(O)cc2c(c1O)[C@H]1O[C@H](CO)[C@@H](O)[C@H](O)[C@@H]1OC2=O ; what normalized growth value has been reported?
1.01

Now consider O=C(O)C1=CC(=C(c2ccc(O)c(C(=O)O)c2)c2ccc(O)c(C(=O)O)c2)C=CC1=O .
0.999

What would you report for CCC(=O)OCC(=O)C1(OC(=O)CC)C(C)CC2C3C(Cl)CC4=CC(=O)C=CC4(C)C3C(O)CC21C (configuration not stated) ?
1.03

And what about the compound C[C@]12CCC3C(CC[C@]4(O)C[C@@H](O)CC[C@]34C=O)[C@@]1(O)CCC2C1=CC(=O)OC1 (some centres not stated) ?
0.943

Also need CC1=C2C(O)C(=O)OC3CC4C(C)(C)C(=O)C=C[C@]4(C)C(CC1)[C@]23C (some centres not stated) , thanks.
1.01

Also, C[C@@H]1O[C@@H](O[C@H]2CC[C@]3(C=O)C4CC[C@]5(C)[C@@H](C6=CC(=O)OC6)CC[C@]5(O)C4CC[C@]3(O)C2)[C@H](O)[C@H](O)[C@H]1O (some centres not stated) please.
1.01

Next compound up: Cc1c(C(N)=O)cc([N+](=O)[O-])cc1[N+](=O)[O-]
0.923

Now the compound NS(=O)(=O)c1cc2c(cc1C(F)(F)F)NC(Cc1ccccc1)NS2(=O)=O (configuration not stated)
0.996

Now consider COC1CC(O[C@H]2CC[C@]3(C=O)C4CC[C@]5(C)C(C6=CC(=O)OC6)CC[C@]5(O)C4CC[C@]3(O)C2)OC(C)C1O (some centres not stated) and answer again.
0.904

Query Cc1ccc(-c2nc3ccc(C)cn3c2CC(=O)N(C)C)cc1 next
1.02

Also Cc1cc(N)c2ccccc2[n+]1CCCCCCCCCC[n+]1c(C)cc(N)c2ccccc21 ?
0.0815

Similarly, COC1C(O)C(O[C@H]2CC[C@]3(C=O)C4C(CC[C@]3(O)C2)[C@@]2(O)CC[C@H](C3=CC(=O)OC3)[C@@]2(C)C[C@H]4OC(C)=O)OC(C)C1OC(C)=O (some centres not stated) ?
1.01

What about this compound? C[C@H]1O[C@@H](O[C@H]2[C@@H](O)C[C@H](O[C@H]3[C@@H](O)C[C@H](O[C@H]4CC[C@]5(C)C6C[C@@H](O)[C@]7(C)[C@@H](C8=CC(=O)OC8)CC[C@]7(O)C6CC[C@@H]5C4)O[C@@H]3C)O[C@@H]2C)C[C@H](O)[C@@H]1O (some centres not stated)
0.973

Same question, CC(=O)N1CCN(c2ccc(OCC3CO[C@](Cn4ccnc4)(c4ccc(Cl)cc4Cl)O3)cc2)CC1 (some centres not stated) this time
0.0896

What do you have for COC1CC(OC2CCC3(C)C(CCC4C3CCC3(C)C(C5=CC(=O)OC5)C(OC(C)=O)CC43O)C2)OC(C)C1O (configuration not stated) ?
0.939

Moving on to CC(=O)OC1CC[C@@]2(C)C(CCC3C2CC[C@]2(C)C(C4=CC(=O)OC4)C(OC(C)=O)CC32O)C1 (some centres not stated)
0.946

Here is the next compound: COC(=O)C[C@H]1C(C)(C)[C@@H](O)[C@@H]2CC3=C4CC(O)O[C@@H](c5ccoc5)[C@]4(C)CCC3[C@@]1(C)C2=O (some centres not stated)
1.05

Next compound up: C/C=C/CC(C)C(O)C1C(=O)NC(CC)C(=O)N(C)CC(=O)N(C)C(CC(C)C)C(=O)NC(C(C)C)C(=O)N(C)C(CC(C)C)C(=O)NC(C)C(=O)NC(C)C(=O)N(C)C(CC(C)C)C(=O)N(C)C(CC(C)C)C(=O)N(C)C(C(C)C)C(=O)N1C (configuration not stated)
1.02

Next compound: CC1(C)O[C@@H]2CC3C4C[C@H](F)C5=CC(=O)CC[C@]5(C)C4[C@@H](O)C[C@]3(C)[C@]2(C(=O)CO)O1 (some centres not stated)
0.987

How about COC(=O)CC1C(C)(C)C(OC(C)=O)[C@@H]2[C@@H](OC(C)=O)[C@]34O[C@@]2(O)[C@]1(C)C3CC[C@]1(C)C4=CC(=O)O[C@H]1c1ccoc1 (some centres not stated) ?
0.999
